test: NCI Yeast Anticancer Drug Screen. Data for the sgs1 mgt1 strain (AID 161);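 also: 0% = growth of cultures given vehicle only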; details: S. cerevisiae sgs1 mgt1 strain; at 50.0 µM unless noted
Compounds without any hit were thinned out: in the full panel of roughly 79,000, 15% have a hit. Activity calls are given as the source filed them. Rule as the data show it: active = growth inhibition above about 70%; inactive = the rest.
Assign a class; possible classes are active, inactive

Below, 5 compounds whose answers are already recorded.
[[record]]
compound = "C=CCc1cc(-c2cc(CC=C)c(O)c(CN(CC)CC)c2)cc(CN(CC)CC)c1O"
group_label = "inactive"

[[record]]
compound = "O=[N+]([O-])c1nccn1CC1OC(n2ccnc2[N+](=O)[O-])C(O)C(O)C1O (stereo unspecified)"
group_label = "inactive"

[[record]]
compound = "Oc1ccc(-c2nc(-c3cccnc3)c(-c3ccc(F)cc3)[nH]2)cc1"
group_label = "inactive"

[[record]]
compound = "Cc1cc(C)c2c(c1)sc1n[nH]c(=S)n12"
group_label = "inactive"

[[record]]
compound = "NC(=O)CCCCCCCCC(N)=O"
group_label = "inactive"


# input What is the recorded call for this compound in the test? `COC(=O)c1cc(NC(=O)Nc2cc(C(F)(F)F)ccc2Cl)cc(C(=O)OC)c1`
# output inactive

# input What is the recorded call for this compound in the test? `C/C(=N/N)c1ccc2[nH]c3c(C)cc([N+](=O)[O-])c(C)c3c2c1`
# output inactive

# input What is the recorded call for this compound in the test? `N#C/C(=C/n1c(=S)[nH]c2ccccc21)C(N)=O`
# output inactive

# input What is the recorded call for this compound in the test? N/N=C1\CC2C3CC4(OCCO4)C4C3CC2C14 (stereo unspecified)
# output inactive

# input What is the recorded call for this compound in the test? CC(=O)C12C[C@](C#N)(N3CCCCCC3)C1C=Cc1ccccc12 (stereo partly specified)
# output inactive

---

experiment: NCI Yeast Anticancer Drug Screen. Data for the sgs1 mgt1 strain (AID 161);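 also: 0% = growth of cultures given vehicle only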; details: S. cerevisiae sgs1 mgt1 strain, stronger effect = higher value; at 50.0 µM unless noted
About 79,000 compounds went through this panel and 15% of them were active in at least one assay; those are over-represented in the sample as a whole. Active and inactive are the calls of the source. Cut-off read from the data, not from the text of the source: active = growth inhibition above about 70%; inactive = the rest.
Listing of recorded growth inhibition by entry.

Some entries whose results are on file:
[[record]]
compound = "CCOC(=O)c1[nH]c(=S)n(C)c1C(=O)OCC"
quantity_measured = "growth inhibition"
experimental_result = "29.1% (inactive)"

[[record]]
compound = "O=C1c2cc(F)ccc2-c2c(F)ccc(F)c21"
quantity_measured = "growth inhibition"
experimental_result = "27.7% (inactive)"

[[record]]
compound = "CC(=O)N1C(=O)CC23c4cccc([N+](=O)[O-])c4C(=O)N2CCCN13 (centres undefined)"
quantity_measured = "growth inhibition"
experimental_result = "0.9% (inactive)"

[[record]]
compound = "COC(=O)C(C(=O)C(=O)Nc1ccccc1OC)c1csc(-n2nc(-c3ccccc3)cc2-c2ccccc2)n1 (centres undefined)"
quantity_measured = "growth inhibition"
experimental_result = "-11.2% (inactive)"

[[record]]
compound = "CSc1ccc(C2NC(=O)NC2=O)cc1 (centres undefined)"
quantity_measured = "growth inhibition"
experimental_result = "-1.95% (inactive)"

[[record]]
compound = "CCOC(=O)C(CC/C=C\\c1ccccc1)N1CCC[C@H]1C(=O)OC (some centres undefined)"
quantity_measured = "growth inhibition"
experimental_result = "-11.9% (inactive)"

[[record]]
compound = "COc1ccc2[nH]c3cc4c(=O)c5cc(OC)ccc5[nH]c4cc3c(=O)c2c1"
quantity_measured = "growth inhibition"
experimental_result = "-6.2% (inactive)"

[[record]]
compound = "Cc1cc(O)c(C)c(C)c1O"
quantity_measured = "growth inhibition"
experimental_result = "-6.95% (inactive)"


# input Identify growth inhibition associated with the compound `Cc1cc(C)nc(NS(=O)(=O)c2ccc(Nc3c4ccccc4nc4c(C(=O)Nc5ccc(S(=O)(=O)Nc6cc(C)on6)cc5)ccc(Cl)c34)cc2)n1`
# output 23.1% (inactive)
